normalized RNA/DNA level with ligand (log10) values for the variants below.
B1: library; a variant is named by its letters at N, in order (parent)
chain: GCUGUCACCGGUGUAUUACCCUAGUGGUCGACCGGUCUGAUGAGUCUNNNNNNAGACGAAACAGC

Variants of: B1
Assay: normalized RNA/DNA level with ligand (relative to sTRSVctl = 100) (log10 (% of sTRSVctl)); ligand: hypoxanthine (xanthine aptamer); higher = less ribozyme self-cleavage, higher mRNA level
Conditions: ligand concentration (+) RNA-Seq: 5 mM, HEK293T, reporter: mCherry (pCS4076), ligand present: yes
property: normalized RNA/DNA level with ligand (log10)

sequence_variant: UACACG
reported_measurement: 1.87

sequence_variant: UCAUAA
reported_measurement: 1.93

sequence_variant: AUAGAC
reported_measurement: 1.88

sequence_variant: AAGUAA
reported_measurement: 1.86

sequence_variant: CUCACA
reported_measurement: 1.91

sequence_variant: GUAUCU
reported_measurement: 1.97

sequence_variant: GCAGUC
reported_measurement: 1.94

sequence_variant: GUGGAA
reported_measurement: 1.88

sequence_variant: CCUUAA
reported_measurement: 1.96

sequence_variant: CUUCAU
reported_measurement: 1.92

sequence_variant: GCAACA
reported_measurement: 1.96

sequence_variant: UGCGGC
reported_measurement: 1.98

sequence_variant: UUUUGU
reported_measurement: 1.94

sequence_variant: GAGCCA
reported_measurement: 1.93

sequence_variant: UUCGGU
reported_measurement: 1.93

sequence_variant: GGCGCG
reported_measurement: 1.95

sequence_variant: UAAUCG
reported_measurement: 1.93
